Procedure text: Plasma PK after IV administration
Conditions: male, Ces1c−/− (JAX stock # 014096), mouse, plasma, iv, 54.4 μmole/kg
For each of the compounds below, state its half-life.
Respond numerically; units are h and should not be typed.

Task: Which half-life value is on record for N#C[C@@]1(c2ccc3c(N)ncnn23)O[C@H](CO)[C@@H](O)[C@H]1O ?
Result: 6.34

Task: Which half-life value is on record for CCC(CC)COC(=O)[C@H](C)N[P@](=O)(OC[C@H]1O[C@@](C#N)(c2ccc3c(N)ncnn23)[C@H](O)[C@@H]1O)Oc1ccccc1 ?
Result: 1.25

* * *

Procedure text: Plasma PK after IV administration
Conditions: male, mouse, plasma, iv, 54.4 μmole/kg
Readout name: concentration at 15 min (µM)
Respond numerically; units are µM and should not be typed.

Task: Which concentration at 15 min value is on record for N#C[C@@]1(c2ccc3c(N)ncnn23)O[C@H](CO)[C@@H](O)[C@H]1O [Nuc] ?
Result: 18.1

Task: Which concentration at 15 min value is on record for CCC(CC)COC(=O)[C@H](C)N[P@](=O)(OC[C@H]1O[C@@](C#N)(c2ccc3c(N)ncnn23)[C@H](O)[C@@H]1O)Oc1ccccc1 [RDV, remdesivir] ?
Result: 1.37
